# testedOn: SRC (Homo sapiens)
# Sequence (P12931 whole entry): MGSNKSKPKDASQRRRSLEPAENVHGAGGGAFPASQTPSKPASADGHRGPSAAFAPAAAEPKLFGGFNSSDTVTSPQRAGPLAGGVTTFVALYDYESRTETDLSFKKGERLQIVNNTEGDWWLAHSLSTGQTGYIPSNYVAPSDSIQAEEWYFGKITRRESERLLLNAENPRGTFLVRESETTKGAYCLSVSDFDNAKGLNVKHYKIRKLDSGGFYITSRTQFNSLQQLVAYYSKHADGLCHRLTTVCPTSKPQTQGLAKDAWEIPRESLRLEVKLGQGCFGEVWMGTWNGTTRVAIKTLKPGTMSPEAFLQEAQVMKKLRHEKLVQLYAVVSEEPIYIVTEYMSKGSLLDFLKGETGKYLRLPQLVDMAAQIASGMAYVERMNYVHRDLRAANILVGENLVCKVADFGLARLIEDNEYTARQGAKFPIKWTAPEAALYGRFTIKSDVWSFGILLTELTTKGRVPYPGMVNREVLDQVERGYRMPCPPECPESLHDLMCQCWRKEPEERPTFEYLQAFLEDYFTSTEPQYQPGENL
# assayDetails: Inhibition of a panel of kinases, in vitro HotSpot kinase assay: SRC
# Assay type: biochemical
# conditionNotes: D-compounds panel data; 1 μM ATP
parameter: IC50

Find the measured IC50 of C[C@@H]1[C@H](N2CCN(C)C2=O)CCCN1c1cnc(C(N)=O)c(Nc2cnn(C)c2)n1 [Example D-93] and report it. 10 to 100 nM

Fill in IC50 for record C[C@@H]1[C@H](NC(=O)c2ccc(C(C)(C)O)nc2)CCCN1c1nnc(C(N)=O)c(Nc2cnn(C)c2)n1 [Example D-41] 10 to 100 nM

State, in one line, measured IC50 of C[C@@H]1[C@H](NC(=O)c2ccc(C3CC3)cc2)CCCN1c1cnc(C(N)=O)c(Nc2cnn(C)c2)c1 [Example D-207] 100 to 1000 nM

Read the entry C[C@@H]1[C@H](NC(=O)c2ccc(S(F)(F)(F)(F)F)cc2)CCCN1c1cnc(C(N)=O)c(Nc2cnn(C)c2)n1 [Example D-230] and write its reported IC50. 100 to 1000 nM

Using known records, supply IC50 for C[C@@H]1[C@H](NC(=O)c2ccc(C(C)(C)N)cc2)CCCN1c1cnc(C(N)=O)c(Nc2cnn(C)c2)n1 [Example D-51] ≤ 10 nM

Report IC50, nothing else, for this molecule: C[C@@H]1[C@H](NC(=O)c2ccc(C(C)(O)C(F)(F)F)cc2)CCCN1c1cnc(C(N)=O)c(Nc2cnn(C)c2)n1 (single isomer, unassigned) [Example D-214] 10 to 100 nM

Give IC50 for Cn1cc(Nc2nc(N3CCC[C@@H](NC(=O)c4ccc(C(C)(C)O)cc4)C3)nnc2C(N)=O)cn1 [Example D-39] 100 to 1000 nM

Annotate the molecule CC(C)c1ccc(S(=O)(=O)N[C@@H]2CCCN(c3cnc(C(N)=O)c(Nc4cnn(C)c4)n3)[C@@H]2C)cc1 [Example D-220] with its measured IC50. 1000 to 10000 nM

State its IC50 for this molecule: Cc1cc(Nc2nc(N3C[C@H](NC(=O)c4ccc(C5CC5)cc4F)CC[C@@H]3C)cnc2C(N)=O)sn1 [Example D-181] 10 to 100 nM

Tell me measured IC50 for Cn1cc(Nc2nc(N3CCC[C@H]4[C@@H]3CCN4C(=O)c3ccc(C4CC4)cc3)cnc2C(N)=O)cn1 [Example D-45] please. 1000 to 10000 nM

Hello, please tell me recorded IC50 for this one: CCn1cc(Nc2nc(N3CCC[C@@H](NC(=O)c4ccc(C5CC5)cc4)[C@H]3C)cnc2C(N)=O)cn1 [Example D-273] 100 to 1000 nM

Give IC50 for C[C@@H]1[C@H](NC(=O)c2ccc(C3CC3)cc2)CCCN1c1cnc(C(N)=O)c(Nc2ccc(OC(F)(F)F)cc2)n1 [Example D-42] > 10000 nM

// fetch IC50 given entry C[C@@H]1[C@H](NC(=O)c2ccc(C3CC3)cc2)CCCN1c1cnc(C(N)=O)c(Nc2ccc(N3CCC(C(=O)N(C)C)CC3)cc2)n1 [Example D-320] 10 to 100 nM

Name the recorded IC50 of the item C[C@@H]1[C@H](NC(=O)c2ccc3scnc3c2)CCCN1c1cnc(C(N)=O)c(Nc2ccc(N3CCN(C)CC3)cc2)n1 [Example D-226] in your answer. ≤ 10 nM

---

Give pIC50 for every item shown.
# testedOn: LCK (Homo sapiens)
# Sequence (P06239 whole entry): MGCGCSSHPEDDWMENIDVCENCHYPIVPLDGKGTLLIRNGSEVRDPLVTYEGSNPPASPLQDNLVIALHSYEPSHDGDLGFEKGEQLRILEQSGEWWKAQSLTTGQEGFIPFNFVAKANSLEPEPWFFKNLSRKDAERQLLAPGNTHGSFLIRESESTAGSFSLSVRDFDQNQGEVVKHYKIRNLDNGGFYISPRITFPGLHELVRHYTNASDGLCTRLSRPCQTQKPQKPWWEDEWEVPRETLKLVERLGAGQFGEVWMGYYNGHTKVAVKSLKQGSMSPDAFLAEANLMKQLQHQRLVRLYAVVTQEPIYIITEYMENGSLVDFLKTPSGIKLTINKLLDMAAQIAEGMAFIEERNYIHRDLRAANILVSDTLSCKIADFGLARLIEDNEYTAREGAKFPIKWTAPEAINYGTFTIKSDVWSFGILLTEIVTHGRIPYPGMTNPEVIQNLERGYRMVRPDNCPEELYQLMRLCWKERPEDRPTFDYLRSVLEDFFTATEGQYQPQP
# assayDetails: Inhibition of a panel of kinases, in vitro HotSpot kinase assay: LCK
# Type: biochemical
# conditionNotes: D-compounds panel data; 1 μM ATP; read-out: IC50 LCK
pIC50: −log10 of the molar value.

Quick one: give measured pIC50 for `C[C@@H]1[C@H](NC(=O)c2ccc(C3CC3)cc2)CCCN1c1cnc(C(N)=O)c(Nc2cnn(C3CCN(CC(F)(F)F)CC3)c2)n1` < 5.00

Return pIC50 for the following compound: `C[C@@H]1[C@H](NC(=O)c2coc(C3CC3)n2)CCCN1c1cnc(C(N)=O)c(Nc2cnn(C)c2)n1` 7.00 to 8.00

Provide one value: measured pIC50 of `C[C@@H]1[C@H](NC(=O)c2ccc(C3COC3)cc2)CCCN1c1cnc(C(N)=O)c(Nc2cnn(C)c2)n1` 6.00 to 7.00

Tell me its pIC50 given `C[C@@H]1[C@H](NC(=O)c2ccc(C(C)(C)CO)cc2)CCCN1c1cnc(C(N)=O)c(Nc2cnn(C)c2)n1` as the entry. 6.00 to 7.00

# return recorded pIC50 for input `C[C@@H]1[C@H](NC(=O)c2ccc(C3CC3)nc2)CCCN1c1cnc(C(N)=O)c(Nc2ccc(OC3CCN(C)CC3)cc2)n1` 7.00 to 8.00

Report measured pIC50; entry is `Cn1cc(Nc2nc(N3CCC[C@@H](n4ccc5cc(C6CC6)ccc5c4=O)C3)cnc2C(N)=O)cn1` 5.00 to 6.00

Hello, please tell me recorded pIC50 for this one: `COCCn1cc(Nc2nc(N3CCC[C@@H](NC(=O)c4ccc(C5CC5)cc4)[C@H]3C)cnc2C(N)=O)cn1` 6.00 to 7.00

Tell me its pIC50 given `Cc1cc(Nc2nc(N3C[C@H](NC(=O)c4ccc(C5CC5)cc4F)CC[C@@H]3C)cnc2C(N)=O)sn1` as the entry. 6.00 to 7.00

Let me know recorded pIC50 for `C[C@@H]1[C@H](NC(=O)c2ccc(C3CC3)cc2F)CCCN1c1cnc(C(N)=O)c(Nc2ccn(C)n2)n1` , thanks. < 5.00

Fill in pIC50 for record `Cn1cc(Nc2nc(N3CCC[C@@H](n4ccc5cc(C6CC6)ncc5c4=O)C3)cnc2C(N)=O)cn1` 6.00 to 7.00

Output measured pIC50 for this item: `C[C@@H]1[C@H](NC(=O)c2ccc(C3CC3)cc2F)CCCN1c1cnc(C(N)=O)c(Nc2ccc3ncccc3c2)n1` < 5.00

Consider the compound `C[C@@H]1[C@H](NC(=O)c2ccc(C3CC3)cc2)CCCN1c1nnc(C(N)=O)c(Nc2cnn(C)c2)n1` . State its measured pIC50. 7.00 to 8.00

Given the compound `C[C@@H]1[C@H](NC(=O)c2c[nH]c(C3CC3)n2)CCCN1c1cnc(C(N)=O)c(Nc2cnn(C)c2)n1` , write its reported pIC50. 7.00 to 8.00

Quickly give me recorded pIC50 for `C[C@@H]1[C@H](NC(=O)c2ccc(C3CC3)cc2Cl)CCCN1c1cnc(C(N)=O)c(Nc2cnn(C)c2)n1` 6.00 to 7.00

---

# testedOn: TEC (Homo sapiens)
# Sequence (P42680 whole entry): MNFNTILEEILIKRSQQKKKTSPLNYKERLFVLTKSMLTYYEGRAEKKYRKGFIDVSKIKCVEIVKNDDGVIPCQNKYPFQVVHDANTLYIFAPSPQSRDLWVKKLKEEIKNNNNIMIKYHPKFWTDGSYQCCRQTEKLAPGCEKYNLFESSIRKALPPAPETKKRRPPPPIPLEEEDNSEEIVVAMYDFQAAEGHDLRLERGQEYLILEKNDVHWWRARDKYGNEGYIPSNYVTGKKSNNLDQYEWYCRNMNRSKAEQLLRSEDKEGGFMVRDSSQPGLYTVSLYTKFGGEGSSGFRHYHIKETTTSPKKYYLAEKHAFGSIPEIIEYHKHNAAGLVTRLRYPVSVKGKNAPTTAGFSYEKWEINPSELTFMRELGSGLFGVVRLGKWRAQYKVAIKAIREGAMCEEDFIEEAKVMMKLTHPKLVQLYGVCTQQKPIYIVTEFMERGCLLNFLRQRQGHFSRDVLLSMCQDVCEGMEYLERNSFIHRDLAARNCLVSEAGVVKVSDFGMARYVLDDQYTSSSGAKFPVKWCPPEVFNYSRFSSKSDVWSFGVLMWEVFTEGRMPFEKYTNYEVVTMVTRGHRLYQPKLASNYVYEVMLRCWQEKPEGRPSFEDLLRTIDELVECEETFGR
# assayDetails: Inhibition of a panel of kinases, in vitro HotSpot kinase assay: TEC
# Assay type: biochemical
# conditionNotes: D-compounds panel data; 1 μM ATP
Assignment: determine reported IC50 for the given compounds.

Report IC50 for `C[C@@H]1[C@H](NC(=O)c2ccc(C3CC3)cc2F)CCCN1c1cnc(C(N)=O)c(Nc2ccc(N3CCN(C)CC3=O)cc2)n1` 10 to 100 nM

Supply IC50 value. Item: `C[C@H]1CC[C@@H](NC(=O)c2ccc(C(C)(C)O)cc2)CN1c1nnc(C(N)=O)c(Nc2cnn(C)c2)n1` ≤ 10 nM

Tell me measured IC50 for `C[C@@H]1[C@H](NC(=O)c2ccc(C3CC3)cc2F)CCCN1c1cnc(C(N)=O)c(Nc2cc(CN(C)C)ns2)n1` please. 10 to 100 nM

Indicate its recorded IC50; the compound in question is C[C@@H]1[C@H](NC(=O)c2ccc(C3CC3)cc2)CCCN1c1cnc(C(N)=O)c(Nc2ccc(OC3C[C@H]4CC[C@@H](C3)N4C)cc2)n1 (stereo partly drawn) [Example D-104] ≤ 10 nM

Report IC50 for `C[C@@H]1[C@H](NC(=O)c2ccc(C3CC3)cc2)CCCN1c1cnc(C(N)=O)c(Nc2cnn(C(F)F)c2)n1` 10 to 100 nM

Supply measured IC50 of `C[C@@H]1[C@H](NC(=O)Nc2cccnc2)CCCN1c1cnc(C(N)=O)c(Nc2ccc(C3(C)CCN(C4CCCC4)CC3)cc2)n1` in your reply. 10 to 100 nM

Indicate the recorded IC50 value for this compound: `Cc1cc2cc(C(=O)N[C@@H]3CCCN(c4cnc(C(N)=O)c(Nc5cnn(C)c5)n4)[C@@H]3C)ccc2o1` ≤ 10 nM

Please give the documented IC50 of `COc1cc(C(=O)N[C@@H]2CCCN(c3cnc(C(N)=O)c(Nc4cnn(C)c4)n3)[C@@H]2C)ccc1C1CC1` 10 to 100 nM

Provide IC50 value for the following compound: `CC(C)c1ccc(S(=O)(=O)N[C@@H]2CCCN(c3cnc(C(N)=O)c(Nc4cnn(C)c4)n3)[C@@H]2C)cc1` 1000 to 10000 nM

// Input: `Cc1ccc(C(=O)N[C@@H]2CCCN(c3cnc(C(N)=O)c(Nc4cnn(C)c4)n3)[C@@H]2C)cc1` . Output its IC50 only. ≤ 10 nM

Note down IC50 recorded for Cn1cc(Nc2nc(N3CCC(NC(=O)c4ccc(C5CC5)cc4)C(O)C3)cnc2C(N)=O)cn1 (single isomer, unassigned) [Example D-29] 1000 to 10000 nM

Using known records, supply IC50 for `C[C@@H]1[C@H](NC(=O)c2ccc(C(C)(C)O)nc2)CCCN1c1nnc(C(N)=O)c(Nc2cnn(C)c2)n1` 10 to 100 nM

Provide one value: measured IC50 of `C[C@@H]1CC[C@H](NC(=O)c2ccc(C3CC3)cc2)CN1c1cnc(C(N)=O)c(Nc2cnn(C)c2)n1` 1000 to 10000 nM
